- Tested on: NCI-H522
- method-summary: NCI tumour cell line growth inhibition, 48 h
Activity calls are given as the source filed them. Rule as the data show it: active = GI50 up to about 1.1 µM and inactive = higher.
// one of yes (1) = active, no (0) = inactive, no free text

Below are worked cases with known answers.
Incoming: Record request — test call for O=C(O)CCCSc1nc2ccccc2s1
Outgoing: no (0)

Incoming: Record request — test call for COC(=O)C(=O)C(C(=O)C(=O)Nc1ccccc1C(=O)OC)c1nc2ccc(C(=O)c3ccccc3)cc2nc1O (centres undefined)
Outgoing: no (0)

Incoming: Record request — test call for O=C(O)C[n+]1cn(NC(=O)Cc2ccccc2)cn1
Outgoing: no (0)

Incoming: Record request — test call for C[C@]12CC[C@@H]3c4cc(I)c(O)cc4CC[C@H]3[C@@H]1CC[C@@H]2O
Outgoing: no (0)

Incoming: Record request — test call for COCn1c2ccc(OC(C)=O)cc2c2c(=O)oc(C)nc21
Outgoing: no (0)

More entries:
Incoming: Record request — test call for COc1cc(C(C)=O)cc(C(=O)N(C(C)C)C(C)C)c1[Si](C)(C)C
Outgoing: no (0)

Incoming: Record request — test call for CC1CNC(c2ccc(COc3ccc(C4=NC(C)CN4)cc3)cc2)=N1 (centres undefined)
Outgoing: no (0)

Incoming: Record request — test call for OC(c1ccc(F)cc1)(c1ccc(F)cc1)C1CC1
Outgoing: no (0)

Incoming: Record request — test call for CC(=O)NC1C(CO)O[C@@H]2OC(C)(C)O[C@H]12 (some centres undefined)
Outgoing: no (0)

Incoming: Record request — test call for CN(C)[C@H]1CC[C@H]2[C@@H]3CCC4C[C@@H](NC(=O)NC(Cc5ccccc5)c5nccs5)CC[C@]4(C)[C@H]3CC[C@]12C (some centres undefined)
Outgoing: no (0)

Incoming: Record request — test call for O=C(C=P(c1ccccc1)(c1ccccc1)c1ccccc1)c1ccc(-c2cccs2)cc1
Outgoing: no (0)

Incoming: Record request — test call for O=C(/C=C(\S/C=C(/c1ccccc1)N1CCn2c(C(=O)c3ccccc3)c(C(=O)c3ccccc3)c(C(=O)c3ccccc3)c21)C(=O)c1ccccc1)c1ccccc1
Outgoing: no (0)

Incoming: Record request — test call for N#CC(C(=O)CCC(=O)Nc1ccc(Cl)cc1)c1ccc(Cl)cc1 (centres undefined)
Outgoing: no (0)

Incoming: Record request — test call for CN(C(=O)C12C3C4C1C1C2C3C41C(=O)C(C)(C)C)C(C)(C)C (centres undefined)
Outgoing: no (0)

Incoming: Record request — test call for O/N=C/c1cc2c(cc1Br)OCO2
Outgoing: no (0)

Incoming: Record request — test call for Cn1c2cn[nH]c(=O)c2c2ccc3ccccc3c21
Outgoing: no (0)

###

- System: OVCAR-5
- method-summary: NCI tumour cell line growth inhibition, 48 h
The source made the active and inactive calls. Cut-off read from the data, not from the text of the source: active = GI50 up to about 1.1 µM and inactive = higher.
Provide the reported GI50 of each item.

Below are worked cases with known answers.
Incoming: Give GI50 for the following compound: Cc1cccc2c(N)c3cccc(C(=O)NCC[N+](C)(C)[O-])c3nc12
Outgoing: 5.32 µM (inactive)

Incoming: Give GI50 for the following compound: C[C@H](C(=O)O)C(=O)NC(=O)N(Cc1ccccc1)N=O
Outgoing: > 100 µM (inactive)

Incoming: Give GI50 for the following compound: O/N=C/[C@H]1COC2(CCCCC2)O1
Outgoing: > 100 µM (inactive)

Incoming: Give GI50 for the following compound: CN(C)[C@H]1CC[C@H]2[C@@H]3CCC4C[C@@H](NC(=O)NC(Cc5ccccc5)c5nccs5)CC[C@]4(C)[C@H]3CC[C@]12C (stereo not given in full)
Outgoing: 1.76 µM (inactive)

List the reported GI50 of each compound below.
1. Clc1ccc(-c2nn3c(COc4cccc(OCc5nnc6sc(-c7ccc(Cl)cc7)nn56)c4)nnc3s2)cc1
2. Clc1ccc(NCNC2Nc3ccccc3N2)cc1Cl
3. CCN(CC)C(=O)C1=C(C)NC(C)=C(C(=O)N(CC)CC)C1
4. COC(=O)c1cccn1C(=O)n1cccc1
5. CCOC(=O)CCC(NC(=O)c1ccc(Oc2nc3ccc(C(F)(F)F)cc3nc2-c2ccccc2)cc1)C(=O)OCC (stereo not given)

Outgoing:
28.6 µM (inactive)
> 100 µM (inactive)
> 100 µM (inactive)
> 100 µM (inactive)
> 68.7 µM (inactive)
